These data points were gathered from the RNAGym collection of RNA variant scans (doi:10.1021/acssynbio.7b00057).

B1: Pistol ribozyme (parent)
chain: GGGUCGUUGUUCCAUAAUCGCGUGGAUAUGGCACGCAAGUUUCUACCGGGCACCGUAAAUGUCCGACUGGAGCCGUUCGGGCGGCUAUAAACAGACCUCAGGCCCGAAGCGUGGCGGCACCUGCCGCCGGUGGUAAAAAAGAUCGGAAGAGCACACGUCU

variants of: B1; test: aptazyme ON/OFF ratio, guanine; higher = stronger switching; co-transcriptional cleavage with and without guanine
measurement name: aptazyme ON/OFF ratio

U7A U8A G9U U11A C12G C13A: 0.953
U8G G9C U10G U11A C12A C13A: 1.12
U7A U8G U11C C13G: 1.35
U7C U8G U10G U11G C12A C13A: 1.11
U7C U8A G9A U10C U11G C12A C13U: 1.14
U7G U8C G9A U10C C12U C13U: 1.08
U8C U10A U11C C12A: 1.08
U8C U10C U11C C13U: 1.08
U8A U10G U11G C12A C13G: 1.15
U7C U8G G9A U10G U11G C12A C13G: 1.24
U10G U11C C12A C13U: 1.4
U7G U8A G9A U10C C12U C13U: 1.12
U7A U8C G9C U10G C12U C13U: 1.26
U7C U8C G9U U10C C12U: 1.32
U7C U8G U10G C12U C13A: 1.27
U8G G9U U10A C12U C13A: 1.2
U7A G9U U10C U11C C12A C13A: 1.03
U7C U10A U11G C12G: 1.18
U7C U8G G9A C12G: 1.29
G9A U11A C12A: 1.68
U7C U8G U10G U11A C13G: 1.13
U7C U8C G9A U10C U11A C13U: 1.45
U8A U10C C12G C13G: 1.45
U7A G9C U10C U11G C13G: 1.08
U7A U8G G9U U11G C13U: 1.45
U7A U8C G9A U10A C12G: 1.24
U7G U8A G9U U10A U11C C12G: 1.09
U7C U8C G9U U10G U11G C12U: 1.1
U8C G9U C13U: 1.27
U7C U8C U10G: 1.98
U7G U8G G9C U10A C12A: 1.03
U7G U8A U10C U11G C12A: 1.27
U7A U8G U10G U11G C13A: 1.39
U8A G9C U10C U11C C12G C13U: 1.04
U7C U8A G9C U10A C12A C13A: 1.26
U7G U8C G9C U11A C12G C13A: 1.13
G9C U10G U11G C12U C13U: 1.05
U7G G9A U10A C12A C13U: 1.28
U7G U8G G9U U11G C13A: 1.2
U7A U8G U10G U11G C12G: 1.31
U7A U8C U10A U11G C12A C13G: 1.15
U7C U8C G9U U10A U11C C12G C13A: 1.17
U10A U11G C12U C13G: 1.24
U7A U8A G9A U10C C13G: 1.04
U7A U8C G9U U10C U11G C13U: 1.25
U7C G9U U10G U11C C12G C13A: 1.06
